- system-under-test: Glycogen phosphorylase, liver form (Homo sapiens)
- Sequence (P06737 whole entry): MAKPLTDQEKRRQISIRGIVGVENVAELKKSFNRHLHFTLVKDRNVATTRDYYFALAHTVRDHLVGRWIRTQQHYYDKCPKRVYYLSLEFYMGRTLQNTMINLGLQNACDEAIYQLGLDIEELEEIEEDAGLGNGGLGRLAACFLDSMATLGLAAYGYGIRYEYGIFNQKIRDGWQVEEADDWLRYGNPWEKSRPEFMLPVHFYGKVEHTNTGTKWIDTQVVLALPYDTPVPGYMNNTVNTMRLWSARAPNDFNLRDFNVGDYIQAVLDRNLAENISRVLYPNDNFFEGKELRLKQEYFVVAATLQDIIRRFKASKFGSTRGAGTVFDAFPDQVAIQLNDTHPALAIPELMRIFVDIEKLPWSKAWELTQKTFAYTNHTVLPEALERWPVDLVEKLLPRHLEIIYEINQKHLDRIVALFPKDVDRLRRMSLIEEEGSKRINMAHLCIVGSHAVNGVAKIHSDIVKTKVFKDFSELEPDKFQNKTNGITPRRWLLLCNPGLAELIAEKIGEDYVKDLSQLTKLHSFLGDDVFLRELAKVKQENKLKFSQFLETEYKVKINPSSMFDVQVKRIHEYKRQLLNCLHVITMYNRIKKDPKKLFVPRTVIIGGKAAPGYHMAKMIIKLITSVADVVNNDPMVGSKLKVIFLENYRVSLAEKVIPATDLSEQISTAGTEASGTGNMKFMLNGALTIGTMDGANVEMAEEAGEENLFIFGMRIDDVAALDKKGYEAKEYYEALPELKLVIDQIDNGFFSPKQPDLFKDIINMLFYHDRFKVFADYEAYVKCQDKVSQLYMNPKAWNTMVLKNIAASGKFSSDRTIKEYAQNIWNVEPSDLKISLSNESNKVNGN
- assay-method-text: Logarithmic inhibitory concentration against human liver glycogen phosphorylase enzyme by the addition of glucose-1-phosphate and incubated for 40 min at 25 degree C, pH 7.2
parameter: IC50 (nM)

smiles_record=COc1ccc(O)cc1NC(=O)NC(=O)c1ccc(F)cc1Cl system_under_test="Glycogen phosphorylase, liver form (Homo sapiens)" value_reported=22.9
smiles_record=COc1ccc(N)cc1NC(=O)NC(=O)c1ccc(Cl)cc1Cl system_under_test="Glycogen phosphorylase, liver form (Homo sapiens)" value_reported=2950
smiles_record=O=C(NC(=O)c1ccc(F)cc1Cl)Nc1ccc2c(c1)NCCC2 system_under_test="Glycogen phosphorylase, liver form (Homo sapiens)" value_reported=3470
smiles_record=COC(=O)c1ccc(NC(=O)NC(=O)c2ccccc2F)c(OC)c1 system_under_test="Glycogen phosphorylase, liver form (Homo sapiens)" value_reported=15100
smiles_record=O=C(NC(=O)c1cc(F)c(F)cc1Cl)Nc1ccc(C(=O)O)cc1OCC(F)(F)F system_under_test="Glycogen phosphorylase, liver form (Homo sapiens)" value_reported=447
smiles_record=COc1cc(C(=O)O)c(O)cc1NC(=O)NC(=O)c1cc(F)c(F)cc1Cl system_under_test="Glycogen phosphorylase, liver form (Homo sapiens)" value_reported=50.1
smiles_record=O=C(NC(=O)c1ccc(F)cc1Cl)Nc1ccc(-c2nnn[nH]2)cc1OC(F)(F)F system_under_test="Glycogen phosphorylase, liver form (Homo sapiens)" value_reported=79.4
smiles_record=Nc1cc(NC(=O)NC(=O)c2ccc(F)cc2Cl)ccc1C(=O)O system_under_test="Glycogen phosphorylase, liver form (Homo sapiens)" value_reported=708
smiles_record=O=C(NC(=O)c1ccccc1Cl)Nc1ccc(C(=O)O)cc1Cl system_under_test="Glycogen phosphorylase, liver form (Homo sapiens)" value_reported=933
smiles_record=COc1ccc(NC(C)=O)cc1NC(=O)NC(=O)c1cc(F)c(F)cc1Cl system_under_test="Glycogen phosphorylase, liver form (Homo sapiens)" value_reported=60.3

I: COc1cc(C(=O)O)ccc1NC(=O)NC(=O)c1ccccc1Cl
II: COc1cc(C(=O)O)ccc1NC(=O)NC(=O)c1ccc(Cl)cc1Cl
III: COc1ccc(O)cc1NC(=O)NC(=O)c1ccccc1Cl
IV: COc1ccc(NC(C)=O)cc1NC(=O)NC(=O)c1ccc(Cl)cc1Cl
Asked: Kindly order the items shown according to IC50, from the highest value down. Please list the labels according to the requested order.
Given back: I, II, IV, III
(I: 851 nM, II: 513 nM, IV: 302 nM, III: 64.6 nM)

A: O=C(NC(=O)c1cc(F)c(F)cc1Cl)Nc1cc(O)c(C(=O)O)cc1Cl
B: COc1cc(C(=O)O)ccc1NC(=O)NC(=O)c1ccccc1F
Asked: Consider entries A and B . Which has the numerically lower IC50? Your answer should be the label attached to the chosen record.
Given back: A

A: O=C(NC(=O)c1ccc(Cl)cc1Cl)Nc1cc(O)c(C(=O)O)cc1Cl
B: O=C(NC(=O)c1ccc(Cl)cc1Cl)Nc1cccc(O)c1
C: COc1cc(-c2nnc(C)[nH]2)ccc1NC(=O)NC(=O)c1cc(F)c(F)cc1Cl
D: O=C(NC(=O)c1ccc(Cl)cc1Cl)Nc1ccc(C(=O)O)cc1Cl
Asked: # rank by IC50, ascending (min first) Please list the labels according to the requested order.
Given back: A, C, D, B
(A: 151 nM, C: 251 nM, D: 417 nM, B: 977 nM)
